The measured values listed here are drawn from the supplement of paper PMC10307832.

test system: NCI-H1944; experiment: relative viability (nuclei count vs DMSO), 5 days (fraction); higher = more cells survive; details: first compound 0.8 µM
measurement.name: relative viability
Format: numeric value only, no unit, no commentary.

{"columns": ["compound", "assayed.target", "relative viability"],
 "data": [
  ["O=c1cc(-c2cccc3c2Sc2ccccc2S3)oc(N2CCOCC2)c1 + CS(=O)(=O)N1CCN(Cc2cc3nc(-c4cccc5[nH]ncc45)nc(N4CCOCC4)c3s2)CC1 [Pictilisib] (partner 1 µM)", "NCI-H1944", 0.29],
  ["O=c1cc(-c2cccc3c2Sc2ccccc2S3)oc(N2CCOCC2)c1 + CC(=O)Nc1cccc(-n2c(=O)n(C3CC3)c(=O)c3c(Nc4ccc(I)cc4F)n(C)c(=O)c(C)c32)c1 [Trametinib] (partner 0.02 µM)", "NCI-H1944", 0.396],
  ["O=c1cc(-c2cccc3c2Sc2ccccc2S3)oc(N2CCOCC2)c1 + O=C(c1cc(Cc2n[nH]c(=O)c3ccccc23)ccc1F)N1CCN(C(=O)C2CC2)CC1 [Olaparib] (partner 8 µM)", "NCI-H1944", 0.414],
  ["COc1nc(C)cnc1NS(=O)(=O)c1cccnc1-c1ccc(-c2nnco2)cc1 [Zibotentan] + N=C(N)NC(=N)NCCc1ccccc1 [Phenformin] (partner 250 µM)", "NCI-H1944", 0.188]
]}

We now examine a further compound.
Query string: Let me know recorded relative viability for COc1nc(C)cnc1NS(=O)(=O)c1cccnc1-c1ccc(-c2nnco2)cc1 [Zibotentan] + CS(=O)(=O)N1CCN(Cc2cc3nc(-c4cccc5[nH]ncc45)nc(N4CCOCC4)c3s2)CC1 [Pictilisib] (partner 1 µM) , thanks.
Result string: 0.338
